protein stability index values for the variants below.
B1: STX5 (parent)
chain: RSEFTLMAKRIGKDLSNTFAKLEK

variants of: B1; experiment: protein stability index of a GFP-peptide fusion (GPS, HEK-293T) (PSI 1-6); higher = more stable; details: c terminus: a fixed tail appended;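 note: lentivirally expressed fusions sorted by FACS into six bins by GFP to DsRed ratio, PSI derived from sequencing read proportions per bin multiplied by bin number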
measured parameter: protein stability index

- RSEFTLMAKRIGKDLSETFAKLEK: 3.15
- RSEFTLMAKRIGKALSNTFAKLEK: 4.25
- RSEFTLMAKRIGKDLSNTFAQLEK: 2.8
- RSEFTLMAKRWGKDLSNTFAKLEK: 1.18
- RSEFTLMAKRIVKDLSNTFAKLEK: 1.54
- RSEFTLMAKRIGKDLSNTFAKLEP: 2.42
- RSEFTLCAKRIGKDLSNTFAKLEK: 1.01
- RSEFTFMAKRIGKDLSNTFAKLEK: 2.36
- RSEFTLMAKRIGKDLSYTFAKLEK: 1.93
- RSEFTLMAKGIGKDLSNTFAKLEK: 2.35
- RSPFTLMAKRIGKDLSNTFAKLEK: 4.75
- RSEFTLMAKFIGKDLSNTFAKLEK: 2.29
- RSEFTLMAKRIGKDLSNCFAKLEK: 2.41
- RSEFTLMAKRIGKDLSNTFAKLED: 2.61
- RSEFTLMIKRIGKDLSNTFAKLEK: 2.79
- RSEFTLMHKRIGKDLSNTFAKLEK: 3.46
- RSEFTLMAKRIGKDLYNTFAKLEK: 3.19
- RSEFTLMAKRIGKDLSNTFAKMEK: 2.58
- RSEFTLMAKRIGKTLSNTFAKLEK: 4.17
- RSEFTLMAKRIGKDLSGTFAKLEK: 3
- RSEFTLMALRIGKDLSNTFAKLEK: 1.88
- RSEFTLMAKRIGKDLMNTFAKLEK: 1.72
- RSEFTLMAKRIGKELSNTFAKLEK: 4.59
- RSEFTLMAKRIGKDLSNTFAMLEK: 1.94
- RSEFTLMAKRIGKCLSNTFAKLEK: 2.71
- RSEFDLMAKRIGKDLSNTFAKLEK: 2.25
- RSEFTLMAKRIGKDLSNTRAKLEK: 3.88
- RSEFTLMAKRFGKDLSNTFAKLEK: 3.65
- RSEFTLMAKRIGKDYSNTFAKLEK: 2.4
- RSEFTLMAKRIGKDLSNVFAKLEK: 2.21
- RSEFTLMAKRIGKDLSNTFAKSEK: 3.17
- RSEFTLMAKRIGCDLSNTFAKLEK: 2.46
- RSEFTLMAKRIGKGLSNTFAKLEK: 3.97
- ESEFTLMAKRIGKDLSNTFAKLEK: 1.45
- RSEFTLMPKRIGKDLSNTFAKLEK: 3.46
- RSEFTLEAKRIGKDLSNTFAKLEK: 3.2
